Provenance of the data: patent US10836770B2

- system.tested: recombinantly expressed His-tagged protein corresponding to amino acids 575-869 of human Tyk2 (Homo sapiens, UniProt P29597)
- Construct: made in house
- Sequence (P29597 with tags, fused parts or gaps): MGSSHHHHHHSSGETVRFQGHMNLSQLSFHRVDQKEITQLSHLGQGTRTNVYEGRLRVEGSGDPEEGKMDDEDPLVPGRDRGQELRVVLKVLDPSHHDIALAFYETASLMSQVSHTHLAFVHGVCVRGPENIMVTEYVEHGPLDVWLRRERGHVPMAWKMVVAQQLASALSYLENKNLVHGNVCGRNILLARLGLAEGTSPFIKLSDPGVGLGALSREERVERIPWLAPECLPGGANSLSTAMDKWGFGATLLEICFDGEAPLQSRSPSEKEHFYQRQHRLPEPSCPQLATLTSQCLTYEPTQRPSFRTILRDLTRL
- method.notes: Probe displacement assay (scintillation proximity, radiolabeled probe)
- Type: binding
endpoint.label: pEC50
Please report pEC50 as the negative decimal logarithm of the molar concentration, giving only the number.

Example results:
CNc1cc(Nc2scnc2C(=O)Nc2cccnc2)nn2c(C(=O)NC3CC3)cnc12 [Example 83] | 8.00
CCNC(=O)c1nscc1Nc1cc(NC)c2ncc(C(=O)NC3CC3)n2n1 [Example 62] | 8.03
CNc1cc(Nc2ccsc2C(=O)NC(C)C)nn2c(C(=O)NC3CC3)cnc12 [Example 44] | 8.00
CCNC(=O)c1ncsc1Nc1cc(NC)c2ncc(C(=O)NC3CC3)n2n1 [Example 79] | 7.70
CNc1cc(Nc2cn(C)nc2C(=O)Nc2ccc(OC)cc2)nn2c(C(=O)NC3CC3)cnc12 [Example 12] | 8.12

Notebook: CCn1cc(Nc2cc(NC)c3ncc(C(=O)NC4CC4)n3n2)c(C(=O)Nc2cncnc2)n1 [Example 29] , pEC50 read as 7.00

Notebook: CCNC(=O)c1nscc1Nc1cc(NC)c2ncc(C(=O)NCc3nccs3)n2n1 [Example 75] , pEC50 read as 8.00

###

- system.tested: recombinantly expressed His-tagged protein corresponding to amino acids 575-869 of human Tyk2 (Homo sapiens, UniProt P29597)
- Construct: made in house
- method.notes: Probe displacement assay (scintillation proximity, radiolabeled probe)
- Assay type: binding
Each entry below carries its reported pEC50.
Please report pEC50 as the negative decimal logarithm of the molar concentration, giving only the number.

CNC(=O)c1nn(C)cc1Nc1cc(NC)c2ncc(C(=O)N[C@@H]3C[C@@H]3F)n2n1 [Example 14] | 8.00

Notebook: CNC(=O)c1cc(Nc2cc(NC)c3ncc(C(=O)NC4CC4)n3n2)nn1C [Example 41] , pEC50 read as 7.52

Notebook: [2H]C([2H])([2H])NC(=O)c1sccc1Nc1cc(NC)c2ncc(C(=O)NC3CC3)n2n1 [Example 47] , pEC50 read as 8.29

Notebook: CCNC(=O)c1nscc1Nc1cc(NC)c2ncc(C(=O)NC(CO)CO)n2n1 [Example 74] , pEC50 read as 8.14

Notebook: CNc1cc(Nc2cn(C)nc2C(=O)Nc2cccnc2)nn2c(C(=O)NC3CC3)cnc12 [Example 5] , pEC50 read as 8.00

Notebook: CNc1cc(Nc2cc(C(=O)Nc3ccccc3)nn2C)nn2c(C(=O)NC3CC3)cnc12 [Example 40] , pEC50 read as 7.10

Notebook: CNC(=O)c1nc(C)sc1Nc1cc(NC)c2ncc(C(=O)NC3CC3)n2n1 [Example 84] , pEC50 read as 8.35

Notebook: CNc1cc(Nc2cn(C)nc2C(=O)Nc2ccc(N(C)C)cc2)nn2c(C(=O)NC3CC3)cnc12 [Example 27] , pEC50 read as 8.17

Notebook: CCNC(=O)c1nscc1Nc1cc(NC)c2ncc(C(=O)N[C@@H]3C[C@@H]3F)n2n1 [Example 73] , pEC50 read as 7.70

Notebook: CNc1cc(Nc2cn(C)nc2C(=O)Nc2ccccc2F)nn2c(C(=O)NC3CC3)cnc12 [Example 25] , pEC50 read as 8.05

Notebook: CCNC(=O)c1nscc1Nc1cc(NC)c2ncc(C(=O)NCCOC)n2n1 [Example 72] , pEC50 read as 8.24

Notebook: CNC(=O)c1cc(Nc2cc(NC)c3ncc(C(=O)NC4CC4)n3n2)n(C)n1 [Example 39] , pEC50 read as 5.90

###

Each entry below carries its reported pEC50.
- system.tested: recombinantly expressed His-tagged protein corresponding to amino acids 575-869 of human Tyk2 (Homo sapiens, UniProt P29597)
- Construct: made in house
- method.notes: Probe displacement assay (scintillation proximity, radiolabeled probe)
- Type: binding
Please report pEC50 as the negative decimal logarithm of the molar concentration, giving only the number.

[2H]C([2H])([2H])NC(=O)c1nn(C)cc1Nc1cc(NC)c2ncc(C(=O)NC3CC3)n2n1 | 7.52
CNc1cc(Nc2cn(C)nc2C(=O)Nc2cccc(F)c2)nn2c(C(=O)NC3CC3)cnc12 | 7.30
[2H]C([2H])([2H])NC(=O)c1sccc1Nc1cc(NC)c2ncc(C(=O)NCCOC)n2n1 | 7.70
CNc1cc(Nc2cn(C)nc2C(=O)Nc2cncnc2)nn2c(C(=O)NC3CC3)cnc12 | 8.12
CNC(=O)c1nn(C)cc1Nc1cc(NC)c2ncc(C(=O)NC3CC3)n2n1 | 7.70

Notebook: CNc1cc(Nc2cn(C)nc2C(=O)Nc2cccc(C)c2)nn2c(C(=O)NC3CC3)cnc12 , pEC50 read as 7.70

Notebook: CCNC(=O)c1nn(C)cc1Nc1cc(NC)c2ncc(C(=O)NC3CC3)n2n1 , pEC50 read as 7.52

Notebook: CNc1cc(Nc2cn(C)nc2C(=O)NC2CCC2)nn2c(C(=O)NC3CC3)cnc12 , pEC50 read as 7.00

###

Each entry below carries its reported pEC50.
- system.tested: recombinantly expressed His-tagged protein corresponding to amino acids 575-869 of human Tyk2 (Homo sapiens, UniProt P29597)
- Construct: made in house
- method.notes: Probe displacement assay (scintillation proximity, radiolabeled probe)
- Format: binding
Please report pEC50 as the negative decimal logarithm of the molar concentration, giving only the number.

Example results:
CNc1cc(Nc2csnc2C(=O)N[C@@H]2C[C@@H]2F)nn2c(C(=O)NC3CC3)cnc12 | 8.70
CNc1cc(Nc2ccoc2C(=O)NC(C)C)nn2c(C(=O)NC3CC3)cnc12 | 8.22
CNC(=O)c1ncsc1Nc1cc(NC)c2ncc(C(=O)NC3CC3)n2n1 | 8.00

Notebook: [2H]C([2H])([2H])NC(=O)c1occc1Nc1cc(NC)c2ncc(C(=O)NC3CC3)n2n1 , pEC50 read as 8.55

###

- system.tested: recombinantly expressed His-tagged protein corresponding to amino acids 575-869 of human Tyk2 (Homo sapiens, UniProt P29597)
- Construct: made in house
- method.notes: Probe displacement assay (scintillation proximity, radiolabeled probe)
- Assay type: binding
- condition.label: 2.5 nM Tyk2 (575-869), 40 nM [3H] probe, 30 minutes at room temperature; read-out: Probe Displacement EC50
endpoint.label: pEC50
Please report pEC50 as the negative decimal logarithm of the molar concentration, giving only the number.

Notebook: CNC(=O)c1ncsc1Nc1cc(NC)c2ncc(C(=O)NC3CC3)n2n1 , pEC50 read as 7.70

###

- system.tested: recombinantly expressed His-tagged protein corresponding to amino acids 575-869 of human Tyk2 (Homo sapiens, UniProt P29597)
- Construct: made in house
- method.notes: Probe displacement assay (scintillation proximity, radiolabeled probe)
- Type: binding
Each entry below carries its reported pEC50.
Please report pEC50 as the negative decimal logarithm of the molar concentration, giving only the number.

Example results:
CNC(=O)c1sccc1Nc1cc(NC)c2ncc(C(=O)NC3CC3)n2n1 [Example 43] | 6.31
[2H]C([2H])([2H])NC(=O)c1nscc1Nc1cc(NC)c2ncc(C(=O)NCc3nccs3)n2n1 [Example 70] | 7.70
CNC(=O)c1nscc1Nc1cc(NC)c2ncc(C(=O)NC3CC3)n2n1 [Example 59] | 8.71
CNc1cc(Nc2csnc2C(=O)Nc2ccc(F)cc2)nn2c(C(=O)NC3CC3)cnc12 [Example 66] | 8.00
CCNC(=O)c1occc1Nc1cc(NC)c2ncc(C(=O)NC3CC3)n2n1 [Example 52] | 8.17
CNc1cc(Nc2ccoc2C(=O)Nc2ccc(F)cc2)nn2c(C(=O)NC3CC3)cnc12 [Example 56] | 8.68
CNc1cc(Nc2cn(C)nc2C(=O)NCC(C)C)nn2c(C(=O)NC3CC3)cnc12 [Example 17] | 7.40

Next, consider the following molecule.
Notebook: CNc1cc(Nc2cn(C)nc2C(=O)Nc2ccncc2)nn2c(C(=O)NC3CC3)cnc12 [Example 6] , pEC50 read as 8.42

###

- system.tested: recombinantly expressed His-tagged protein corresponding to amino acids 575-869 of human Tyk2 (Homo sapiens, UniProt P29597)
- Construct: made in house
- method.notes: Probe displacement assay (scintillation proximity, radiolabeled probe)
- Assay type: binding
pEC50: −log10 of the molar value.
Given measured pEC50, output YES if it is greater than or equal to 8 and NO if not.

Problem: Check this compound for pEC50 at or above 8: [2H]C([2H])([2H])NC(=O)c1sccc1Nc1cc(NC)c2ncc(C(=O)NCCO)n2n1 [Example 49]
Solution: NO

Problem: Check this compound for pEC50 at or above 8: CNc1cc(Nc2cn(C)nc2C(=O)Nc2ccc(F)cc2)nn2c(C(=O)NC3CC3)cnc12 [Example 23]
Solution: NO

###

Each entry below carries its reported pEC50.
- system.tested: recombinantly expressed His-tagged protein corresponding to amino acids 575-869 of human Tyk2 (Homo sapiens, UniProt P29597)
- Construct: made in house
- method.notes: Probe displacement assay (scintillation proximity, radiolabeled probe)
- Assay type: binding
Please report pEC50 as the negative decimal logarithm of the molar concentration, giving only the number.

Example results:
CCNC(=O)c1nscc1Nc1cc(NC)c2ncc(C(=O)NC3CCC3)n2n1 [Example 71] | 8.09
CNc1cc(Nc2nn(C)cc2C(=O)Nc2ccccc2)nn2c(C(=O)NC3CC3)cnc12 [Example 36] | 6.89
[2H]C([2H])([2H])NC(=O)c1nscc1Nc1cc(NC)c2ncc(C(=O)NC3CCC3)n2n1 [Example 67] | 7.40
CNc1cc(Nc2cn(C)nc2C(=O)Nc2cc(C)c(C)nn2)nn2c(C(=O)NC3CC3)cnc12 [Example 7] | 7.70
CNc1cc(Nc2csnc2C(=O)Nc2ccc(OC)cc2)nn2c(C(=O)NC3CC3)cnc12 [Example 63] | 8.22
CNc1cc(Nc2cn(C)nc2C(=O)NC2CC2)nn2c(C(=O)NC3CC3)cnc12 [Example 16] | 8.35

Notebook: CNc1cc(Nc2ccsc2C(=O)Nc2cccnc2)nn2c(C(=O)NC3CC3)cnc12 [Example 46] , pEC50 read as 8.10

Notebook: [2H]C([2H])([2H])NC(=O)c1sccc1Nc1cc(NC)c2ncc(C(=O)NC3CCC3)n2n1 [Example 50] , pEC50 read as 7.52

Notebook: CNc1cc(Nc2cnn(C)c2C(=O)O)nn2c(C(=O)NC3CC3)cnc12 [Example 37] , pEC50 read as 7.30

Notebook: CNc1cc(Nc2ccoc2C(=O)Nc2cccnc2)nn2c(C(=O)NC3CC3)cnc12 [Example 58] , pEC50 read as 8.44

Notebook: [2H]C([2H])([2H])NC(=O)c1nscc1Nc1cc(NC)c2ncc(C(=O)NCCOC)n2n1 [Example 69] , pEC50 read as 8.64

Notebook: CNc1cc(Nc2cn(C)nc2C(=O)Nc2ccc3c(c2)OCO3)nn2c(C(=O)NC3CC3)cnc12 [Example 13] , pEC50 read as 8.11

Notebook: CNc1cc(Nc2csnc2C(=O)Nc2ccccc2)nn2c(C(=O)NC3CC3)cnc12 [Example 60] , pEC50 read as 8.57
